- Method summary: blockers of mitochondrial fusion, WT vs mutant – cell-based, chemical genetic, wild-type and mutant, confirmation (AID 1361)
- Run conditions: Cell-based mitochondrial fusion phenotype, imaging, WT cells
The source made the active and inactive calls. How the calls were made is not given here.
Possible outcomes: 1.0 for active, 0.0 for inactive

Molecule | Class label
CCN1CCN(CCNC(=O)c2ccc(/C=C3/Sc4ccccc4N(Cc4ccccc4C)C3=O)cc2)CC1 | 1.0
CS(=O)(=O)N(Cc1cc2ccccc2[nH]c1=O)C1CCCCC1 | 0.0
Cc1onc(-c2ccccc2Cl)c1C(=O)Nc1sc2c(c1C(N)=O)CCC(C)C2 (stereo not given) | 1.0
COc1cc(OC)c2c(c1)C(=O)c1cc(OC)cc(OC)c1C2=O | 0.0
CC12CCC(O)CC1=CCC1C2CCC2(C)C1CCC21CCC(=O)O1 (stereo not given) | 1.0
